Tested on: 1205 Lu metastatic melanoma cells
Test: MTS assay viability IC50, 1205 Lu
Assay type: cell-based, human
Settings: Table 4; read-out: IC50 Metastatic Melanoma Cell line 1205Lu
reported_property: IC50

compound: CCOC[C@]1(C)CCC[C@]2(C)C3CCC(C(C)C)C=C3C=CC12 (some centres unmarked)
IC50: > 100 µM

Entry CC(C)C1C=C2C=CC3[C@](C)(CO)CCC[C@]3(C)C2CC1 (some centres unmarked) ; IC50 = 60.4 µM

* * *

System: FF2441 normal human fibroblasts
Assay: MTS assay viability IC50, normal fibroblasts
Type: cell-based
Details: Homo sapiens, FF2441; Table 5; read-out: IC50 Fibroblast FF2441
reported_property: IC50 (µM)
Write down the numeric answer in µM and omit the unit.

Guide cases for IC50, answers given:
molecule: CC(C)c1ccc2c(c1)CCC1[C@](C)(CN)CCC[C@]21C (some centres unmarked)
unit_abbrev: µM
IC50: 8.91

molecule: CC(C)c1ccc2c(c1)CCC1[C@](C)(CNC(=O)C(F)(F)F)CCC[C@]21C (some centres unmarked)
unit_abbrev: µM
IC50: 5.17

molecule: CNC[C@]1(C)CCC[C@]2(C)C3CCC(C(C)C)=CC3=CCC12 (some centres unmarked)
unit_abbrev: µM
IC50: 9.33

We now examine a further molecule.
The observed IC50 for CC(C)C1=CC2=CCC3[C@](C)(CN)CCC[C@]3(C)C2CC1 (some centres unmarked) when tested with FF2441 normal human fibroblasts stands at 8.33

* * *

System: UACC 903 metastatic melanoma cells
Assay: MTS assay viability IC50, UACC 903
Type: cell-based, human
Details: activity against fibroblasts FF2441 compared to melanoma cells
The entries below come with measured Selectivity ratio, fibroblasts versus UACC903 values attached.

Guide cases for Selectivity ratio, fibroblasts versus UACC903, answers given:
compound: CC(C)C1=CC2=CCC3[C@](C)(CN)CCC[C@]3(C)C2CC1 (stereo partly shown) [Compound 4a]
test_target: UACC 903 metastatic melanoma cells
test_result: ~4

compound: CNC[C@]1(C)CCC[C@]2(C)C3CCC(C(C)C)=CC3=CCC12 (stereo partly shown) [Compound 4b]
test_target: UACC 903 metastatic melanoma cells
test_result: ~4

compound: CC(C)c1ccc2c(c1)CCC1[C@](C)(CN)CCC[C@]21C (stereo partly shown) [Leelamine]
test_target: UACC 903 metastatic melanoma cells
test_result: > 6

Entry CC(C)c1ccc2c(c1)CCC1[C@](C)(CNC(=O)C(F)(F)F)CCC[C@]21C (stereo partly shown) [Compound 5a] ; Selectivity ratio, fibroblasts versus UACC903 = ~4

* * *

The entries below come with measured pIC50 values attached.
Test system: Breast (MCF-7) cancer cell line
Experiment: MTS assay viability IC50, MCF-7
Format: cell-based
Conditions: Homo sapiens, MCF7; Table 5
# pIC50 = -log10(concentration in molar units)

molecule: CC(C)c1ccc2c(c1)CCC1[C@](C)(CN)CCC[C@]21C (some centres unmarked)
pIC50: 5.19
//
molecule: CC(C)c1ccc2c(c1)CCC1[C@](C)(CNC(=O)C(F)(F)F)CCC[C@]21C (some centres unmarked)
pIC50: 5.36

The observed pIC50 for CC(C)C1=CC2=CCC3[C@](C)(CN)CCC[C@]3(C)C2CC1 (some centres unmarked) when tested with Breast (MCF-7) cancer cell line stands at 5.06

The observed pIC50 for CNC[C@]1(C)CCC[C@]2(C)C3CCC(C(C)C)=CC3=CCC12 (some centres unmarked) when tested with Breast (MCF-7) cancer cell line stands at 5.04

* * *

System: 1205 Lu metastatic melanoma cells
Experiment: MTS assay viability IC50, 1205 Lu
Assay type: cell-based, human
Settings: Homo sapiens, 1205Lu; Table 4; read-out: IC50 Metastatic Melanoma Cell line 1205Lu
The entries below come with measured pIC50 values attached.
# pIC50 = -log10(concentration in molar units)

Guide cases for pIC50, answers given:
molecule: CCN(CC)C[C@]1(C)CCC[C@]2(C)C3CCC(C(C)C)=CC3=CCC12 (stereo partly shown)
pIC50: 4.61

molecule: CNC[C@]1(C)CCC[C@]2(C)C3CCC(C(C)C)=CC3=CCC12 (stereo partly shown)
pIC50: 5.62

molecule: CC(C)c1ccc2c(c1)CCC1[C@](C)(CNC(=O)C(F)(F)F)CCC[C@]21C (stereo partly shown)
pIC50: 5.68

molecule: CC(C)C1=CC2=CCC3[C@](C)(CCC[C@@]3(C)C(N)=O)C2CC1 (stereo partly shown)
pIC50: 4.09

We now examine a further molecule.
Entry CC(C)C1=CC2=CCC3[C@](C)(CN)CCC[C@]3(C)C2CC1 (stereo partly shown) ; pIC50 = 5.54

* * *

System: Prostate (LnCap) cancer cell line
Assay: MTS assay viability IC50, LnCap
Assay type: cell-based
Conditions: Homo sapiens, Table 5
reported_property: IC50 (µM)
Write down the numeric answer in µM and omit the unit.

compound: CC(C)C1=CC2=CCC3[C@](C)(CN)CCC[C@]3(C)C2CC1 (some centres unmarked) [Compound 4a]
IC50, µM: 14.8
//
compound: CC(C)c1ccc2c(c1)CCC1[C@](C)(CN)CCC[C@]21C (some centres unmarked) [Leelamine]
IC50, µM: 10.9
//
compound: CC(C)c1ccc2c(c1)CCC1[C@](C)(CNC(=O)C(F)(F)F)CCC[C@]21C (some centres unmarked) [Compound 5a]
IC50, µM: 8.63

The observed IC50 for CNC[C@]1(C)CCC[C@]2(C)C3CCC(C(C)C)=CC3=CCC12 (some centres unmarked) [Compound 4b] when tested with Prostate (LnCap) cancer cell line stands at 22.4

* * *

Tested on: melanoma cell lines (UACC 903, 1205Lu)
Assay: MTS assay, melanoma cell lines (cell line not given)
Type: cell-based, human
Conditions: Homo sapiens; Example 8
The entries below come with measured IC50 values attached.

The observed IC50 for CC(C)c1ccc2c(c1)CCC1[C@](C)(CNC(=O)c3ccccc3)CCC[C@]21C (some centres unmarked) [Compound 5c] when tested with melanoma cell lines (UACC 903, 1205Lu) stands at > 100 µM

The observed IC50 for CC(C)c1ccc2c(c1)CCC1[C@](C)(CNC(c3ccccc3)(c3ccccc3)c3ccccc3)CCC[C@]21C (some centres unmarked) [Compound 5e] when tested with melanoma cell lines (UACC 903, 1205Lu) stands at > 100 µM

* * *

Tested on: 1205 Lu metastatic melanoma cells
Assay: MTS assay viability IC50, 1205 Lu
Type: cell-based, human
Details: Homo sapiens, 1205Lu; Example 8; read-out: IC50 1205Lu
The entries below come with measured IC50 values attached.
Write down the numeric answer in µM and omit the unit.

compound: CC(C)C1=CC2=CCC3[C@](C)(CN)CCC[C@]3(C)C2CC1 (stereo partly shown) [Compound 4a]
reported_property: IC50
test_result: 2.87
//
compound: CNC[C@]1(C)CCC[C@]2(C)C3CCC(C(C)C)=CC3=CCC12 (stereo partly shown) [Compound 4b]
reported_property: IC50
test_result: 2.38

We now examine a further compound.
The observed IC50 for CCN(CC)C[C@]1(C)CCC[C@]2(C)C3CCC(C(C)C)=CC3=CCC12 (stereo partly shown) [Compound 4c] when tested with 1205 Lu metastatic melanoma cells stands at 24.3

* * *

System: FF2441 normal human fibroblasts
Assay: MTS assay viability IC50, normal fibroblasts
Type: cell-based
Conditions: Homo sapiens, FF2441; Table 4; read-out: IC50 Normal fibroblast FF2441
reported_property: IC50

Entry CC(C)C1=CC2=CCC3[C@](C)(CCC[C@@]3(C)C(=O)O)C2CC1 (stereo partly shown) [Abietic acid, reference compound] ; IC50 = > 100 µM

* * *

Test system: melanoma cell lines (UACC 903, 1205Lu)
Test: MTS assay, melanoma cell lines (cell line not given)
Assay type: cell-based, human
Details: Homo sapiens; Example 8
reported_property: IC50

Guide cases for IC50, answers given:
compound: CNC(=O)[C@]1(C)CCC[C@]2(C)C3CCC(C(C)C)=CC3=CCC21 (stereo partly drawn)
IC50: > 100 µM
--
compound: CC(C)c1ccc2c(c1)CCC1[C@](C)(CNCc3ccccc3)CCC[C@]21C (stereo partly drawn)
IC50: 6 µM

We now examine a further compound.
Entry CCN(CC)C(=O)[C@]1(C)CCC[C@]2(C)C3CCC(C(C)C)=CC3=CCC21 (stereo partly drawn) ; IC50 = > 100 µM

// data source = patent US9839618B2
